B1: HDV Ribozyme (parent)
chain: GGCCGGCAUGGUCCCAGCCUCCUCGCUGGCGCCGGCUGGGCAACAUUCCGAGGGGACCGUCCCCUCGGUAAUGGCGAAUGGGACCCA

- Variants of: B1
- PROCEDURE SUMMARY: self-cleavage, relative activity (ratio to wild type); higher = more cleavage; co-transcriptional
self-cleavage of 0.2 or higher: rule met. Under 0.2: rule not met.

Some entries whose results are on file:
> print(dat)
   variant.annotation  assigned.label
1           G35U U72C    rule not met
2           C30U G38A    rule not met

In the following, a different variant is considered.
Check the entry C18U A87C : does self-cleavage equal or exceed 0.2? rule met
